EXPERIMENTAL_DETAILS: Inhibition of thapsigargin activated calcium-release activated channel in rat RBL2H3 mast cells assessed as decrease in release of beta-hexosaminidase preincubated for 30 mins followed by extracellular calcium addition by ELISA method
Type: cell-based
STATED_CONDITIONS: RBL-2H3
OBSERVED_PROPERTY: EC50 (nM)
Answers are plain numbers, in nM.

[ask] # query: EC50 of entry O=C(Nc1ccnc(F)c1)c1nn(Cc2ccc(Cl)cc2Cl)c2ccccc12
[reply] 860
